Tested on: corn (Zea mays)
assaySummary: Test A postemergence, corn
Assay type: in vivo
conditionNotes: 500 g ai/ha, 0 to 100 scale (0 no effect, 100 complete control)
metricName: Plant response rating, Corn

Worked cases, Plant response rating, Corn given:
1. Cn1c(=O)c(CS(=O)(=O)C2=NOC(C)(C)C2)c(C(F)(F)F)c2ccccc21 = 0
2. CC1(C)CC(S(=O)(=O)Cc2c(C(F)(F)F)nc3n(c2=O)CCCC3)=NO1 = 60
3. CC1(C)CC(S(=O)(=O)Cc2c(C(F)(F)Cl)nc3n(c2=O)CCCC3)=NO1 = 0
4. Cc1cc2nc(C(F)(F)F)c(CS(=O)(=O)C3=NOC(C)(C)C3)c(=O)n2o1 = 0
5. CCn1c(=O)c(CS(=O)(=O)C2=NOC(C)(C)C2)nc2cccnc21 = 0

Now turn to the next compound.
Any idea what its Plant response rating, Corn is? The compound is CC1(C)CC(S(=O)(=O)Cc2c(C(F)(F)F)nc3n(c2=O)CCCCC3)=NO1 0

* * *

Test system: large crabgrass (Digitaria sanguinalis)
assaySummary: Test A postemergence, large crabgrass
Assay type: in vivo
conditionNotes: 500 g ai/ha, 0 to 100 scale (0 no effect, 100 complete control)
Hi all, reminder that labels come from Plant response rating, Crabgrass, Large, split as low interval (below 40), middle interval (40 to below 70), high interval (70 or more)

Worked examples follow.
1. Cc1cc2nc(C(F)(F)F)c(C[S+]([O-])C3=NOC(C)(C)C3)c(=O)n2o1 (centres unmarked) [Compound 50] = middle interval
2. CC1(C)CC([S+]([O-])Cc2c(C(F)(F)C(F)(F)F)nc3n(c2=O)CCCC3)=NO1 (centres unmarked) [Compound 19] = low interval

Which band does Cc1cc2nc(C(F)(F)F)c(CS(=O)(=O)C3=NOC(C)(C)C3)c(=O)n2o1 [Compound 53] fall in? high interval

Entry to check: CCn1c(=O)c(C[S+]([O-])C2=NOC(C)(C)C2)nc2cccnc21 (centres unmarked) [Compound 38] low interval

Entry to check: CC1(C)CC([S+]([O-])Cc2c(C(F)(F)F)nc3cccnn3c2=O)=NO1 (centres unmarked) [Compound 46] low interval

Entry to check: CC1(C)CC(S(=O)(=O)Cc2c(C(F)(F)Cl)nc3n(c2=O)CCCC3)=NO1 [Compound 30] high interval

Entry to check: CC1(C)CC([S+]([O-])Cc2c(C(F)(F)F)nc3ccon3c2=O)=NO1 (centres unmarked) [Compound 43] middle interval

Entry to check: Cc1con2c(=O)c(CS(=O)(=O)C3=NOC(C)(C)C3)c(C(F)(F)F)nc12 [Compound 56] high interval

Entry to check: CC1(C)CC([S+]([O-])Cc2c(C(F)(F)C(F)(F)F)nc3n(c2=O)CCC3)=NO1 (centres unmarked) [Compound 27] high interval

Entry to check: CC1(C)CC(S(=O)(=O)Cc2c(C(F)(F)F)nc3n(c2=O)CCC3)=NO1 [Compound 11] high interval

* * *

Tested on: umbrella sedge (Cyperus difformis)
assaySummary: Test B flooded paddy test, umbrella sedge
Format: in vivo
conditionNotes: Flood, 250 g ai/ha; scale 0 to 100
metricName: Plant response rating, Sedge, Umbrella
Output: the number by itself.

Worked cases, Plant response rating, Sedge, Umbrella given:
1. CC1(C)CC([S+]([O-])Cc2c(C(F)(F)F)nc3n(c2=O)CCS3)=NO1 (stereo not drawn) = 45
2. CCn1c(=O)c(C[S+]([O-])C2=NOC(C)(C)C2)nc2cccnc21 (stereo not drawn) = 0
3. CC1(C)CC(S(=O)(=O)Cc2c(C(F)(F)Cl)nc3n(c2=O)CCC3)=NO1 = 0
4. CC1(C)CC(S(=O)(=O)Cc2c(C(F)(F)F)nc3n(c2=O)CCC3)=NO1 = 20
5. CC1(C)CC([S+]([O-])Cc2c(C(F)(F)C(F)(F)F)nc3n(c2=O)CCS3)=NO1 (stereo not drawn) = 0
6. CC1(C)CC([S+]([O-])Cc2c(C(F)(F)F)nc3n(c2=O)CCCO3)=NO1 (stereo not drawn) = 0
7. CCn1c(=O)c(CS(=O)(=O)C2=NOC(C)(C)C2)nc2ccccc21 = 0
8. Cn1c(=O)c(CS(=O)(=O)C2=NOC(C)(C)C2)nc2ccccc21 = 0

Any idea what its Plant response rating, Sedge, Umbrella is? The compound is Cc1cc2nc(C(F)(F)F)c(CS(=O)(=O)C3=NOC(C)(C)C3)c(=O)n2o1 0

Entry to check: CC1(C)CC([S+]([O-])Cc2c(C(F)(F)Cl)nc3n(c2=O)CCC3)=NO1 (stereo not drawn) 0

* * *

The following molecules are shown together with reported Plant response rating, Velvetleaf values.
Tested on: velvetleaf (Abutilon theophrasti)
assaySummary: Test A preemergence, velvetleaf
Format: in vivo
conditionNotes: 125 g ai/ha, 0 to 100 scale (0 no effect, 100 complete control)
Output: the number by itself.

Worked cases, Plant response rating, Velvetleaf given:
1. CC1(C)CC(S(=O)(=O)Cc2c(C(F)(F)F)nc3ccsn3c2=O)=NO1 = 50
2. CCn1c(=O)c(CS(=O)(=O)C2=NOC(C)(C)C2)nc2cccnc21 = 0
3. CC1(C)CC(S(=O)(=O)Cc2c(C(F)(F)C(F)(F)F)nc3n(c2=O)CCCC3)=NO1 = 0
4. CC1(C)CC([S+]([O-])Cc2c(C(F)(F)F)nc3cnccn3c2=O)=NO1 (centres unmarked) = 0
5. Cn1c(=O)c(CS(=O)(=O)C2=NOC(C)(C)C2)nc2ccccc21 = 0

Any idea what its Plant response rating, Velvetleaf is? The molecule is CC1(C)CC([S+]([O-])Cc2c(C(F)(F)C(F)(F)F)nc3n(c2=O)CCS3)=NO1 (centres unmarked) 0

Entry to check: CC1(C)CC(S(=O)(=O)Cc2c(C(F)(F)F)nc3n(c2=O)CCCO3)=NO1 10

Entry to check: CC1(C)CC([S+]([O-])Cc2c(C(F)(F)F)nc3cccnn3c2=O)=NO1 (centres unmarked) 0

* * *

Tested on: large crabgrass (Digitaria sanguinalis)
assaySummary: Test A postemergence, large crabgrass
Assay type: in vivo
conditionNotes: 500 g ai/ha, 0 to 100 scale (0 no effect, 100 complete control)
The following compounds are shown together with reported Plant response rating, Crabgrass, Large values.

1. CC1(C)CC([S+]([O-])Cc2c(C(F)(F)C(F)(F)F)nc3n(c2=O)CCCS3)=NO1 (stereo not shown) = 40
2. CC1(C)CC([S+]([O-])Cc2c(C(F)(F)Cl)nc3n(c2=O)CCCS3)=NO1 (stereo not shown) = 50

Any idea what its Plant response rating, Crabgrass, Large is? The compound is CC1(C)CC([S+]([O-])Cc2c(C(F)(F)Cl)nc3n(c2=O)CCC3)=NO1 (stereo not shown) 50

Entry to check: Cn1c(=O)c(CS(=O)(=O)C2=NOC(C)(C)C2)nc2ccccc21 60

* * *

Test system: barnyardgrass (Echinochloa crus-galli)
assaySummary: Test A postemergence, barnyardgrass
Format: in vivo
conditionNotes: 125 g ai/ha, 0 to 100 scale (0 no effect, 100 complete control)
metricName: Plant response rating, Barnyardgrass
Output: the number by itself.

Any idea what its Plant response rating, Barnyardgrass is? The molecule is CC1(C)CC(S(=O)(=O)Cc2c(C(F)(F)F)nc3ccsn3c2=O)=NO1 80

Entry to check: CC1(C)CC([S+]([O-])Cc2c(C(F)(F)C(F)(F)F)nc3n(c2=O)CCCS3)=NO1 (stereo not shown) 10

Entry to check: CC1(C)CC([S+]([O-])Cc2c(C(F)(F)F)nc3cnccn3c2=O)=NO1 (stereo not shown) 0

* * *

System: pigweed (Amaranthus retroflexus)
assaySummary: Test B preemergence, pigweed
Type: in vivo
conditionNotes: 62 g ai/ha, scale 0 to 100
metricName: Plant response rating, Pigweed
Output: the number by itself.

Any idea what its Plant response rating, Pigweed is? The compound is CC1(C)CC(S(=O)(=O)Cc2c(C(F)(F)F)nc3n(c2=O)CCO3)=NO1 0

Entry to check: CC1(C)CC(S(=O)(=O)Cc2c(C(F)(F)Cl)nc3n(c2=O)CCC3)=NO1 100

Entry to check: CC1(C)CC(S(=O)(=O)Cc2c(C(F)(F)F)nc3n(c2=O)CCS3)=NO1 100

Entry to check: CC1(C)CC(S(=O)(=O)Cc2c(C(F)(F)C(F)(F)F)nc3n(c2=O)CCCC3)=NO1 0

Entry to check: CC1(C)CC(S(=O)(=O)Cc2c(C(F)(F)F)nc3n(c2=O)CCC3)=NO1 100

Entry to check: CC1(C)CC(S(=O)(=O)Cc2c(C(F)(F)F)nc3ccsn3c2=O)=NO1 0

Entry to check: CC1(C)CC(S(=O)(=O)Cc2c(C(F)(F)F)nc3n(c2=O)CCCC3)=NO1 95
